Each recorded value in this set is attributed to patent US20050137807A1.

target_under_test: human serum albumin (Homo sapiens)
protocol_notes: binding constant to human serum albumin (TRANSIL technology)
measurement_parameters: log binding constant to human serum albumin, TRANSIL
Quick reference: LogHSA of the listed items.

compound	LogHSA
COc1cccc2c1C(=O)c1c(O)c3c(c(O)c1C2=O)C[C@@](O)(C(=O)CO)C[C@@H]3O[C@H]1C[C@H](N)[C@H](O)[C@H](C)O1	−1.886
C[C@]12CC[C@H]3[C@@H](CCC4=CC(=O)CC[C@@]43C)[C@@H]1CC[C@@H]2O	−4.912
CC1(C)S[C@@H]2[C@H](NC(=O)Cc3ccccc3)C(=O)N2[C@H]1C(=O)O	−4.301
CCOC(=O)C1=C(COCCN)NC(C)=C(C(=O)OC)C1c1ccccc1Cl (centres unmarked)	−5.000
CC(=O)[C@H]1CC[C@H]2[C@@H]3CCC4=CC(=O)CC[C@]4(C)[C@H]3CC[C@]12C	−6.189
OC(CCN1CCCCC1)(c1ccccc1)C1CCCCC1 (centres unmarked)	−3.006
CCN(CC)CCNC(=O)c1ccc(NC(C)=O)cc1 [N-Acetylprocainamide]	−2.268
CNCCCN1c2ccccc2CCc2ccccc21	−3.398
C[C@H]1O[C@@H](O[C@H]2[C@@H](O)C[C@H](O[C@H]3[C@@H](O)C[C@H](O[C@H]4CC[C@@]5(C)[C@H](CC[C@@H]6[C@@H]5C[C@@H](O)[C@]5(C)[C@@H](C7=CC(=O)OC7)CC[C@]65O)C4)O[C@@H]3C)O[C@@H]2C)C[C@H](O)[C@@H]1O	−2.284
CCCC(C)C1(CC)C(=O)NC(=O)NC1=O (centres unmarked)	−2.523
CC1(C)S[C@@H]2[C@H](NC(=O)[C@H](N)c3ccc(O)cc3)C(=O)N2[C@H]1C(=O)O	−2.301
CC(C)=CCN1CCC2(C)c3cc(O)ccc3CC1C2C (centres unmarked)	−2.510
CCOC(=O)C1=C(C)NC(C)=C(C(=O)OC)C1c1cccc(Cl)c1Cl (centres unmarked)	−5.301
CCC1(c2ccccc2)C(=O)NC(=O)NC1=O	−2.854

###

Quick reference: LogHSA of the listed items.
target_under_test: human serum albumin (Homo sapiens, UniProt P02768)
Sequence (P02768 25-609): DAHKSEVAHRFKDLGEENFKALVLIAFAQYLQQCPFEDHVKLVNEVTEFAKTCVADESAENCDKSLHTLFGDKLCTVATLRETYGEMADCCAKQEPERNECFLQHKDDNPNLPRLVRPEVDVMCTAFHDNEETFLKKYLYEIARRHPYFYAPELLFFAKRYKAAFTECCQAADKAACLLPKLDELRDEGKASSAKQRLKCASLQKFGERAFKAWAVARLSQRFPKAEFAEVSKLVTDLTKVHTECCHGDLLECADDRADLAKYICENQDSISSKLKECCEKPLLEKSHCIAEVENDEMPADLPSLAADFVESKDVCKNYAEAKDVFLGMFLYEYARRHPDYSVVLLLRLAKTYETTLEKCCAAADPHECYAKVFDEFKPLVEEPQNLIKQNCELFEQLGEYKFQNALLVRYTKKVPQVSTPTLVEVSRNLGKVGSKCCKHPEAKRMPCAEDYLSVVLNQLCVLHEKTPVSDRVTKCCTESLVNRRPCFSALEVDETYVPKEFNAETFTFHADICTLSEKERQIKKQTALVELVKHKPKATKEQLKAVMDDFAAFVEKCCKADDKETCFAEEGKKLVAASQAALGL
protocol_notes: binding constant to human serum albumin (TRANSIL technology)
measurement_parameters: human
parameter_measured: LogHSA

                                   molecule  result
0  COC(=O)C1=C(C)NC(C)=C(C(=O)OCCN(C)Cc2ccccc2)C1c1cccc([N+](=O)[O-])c1 (stereo not shown)  −5.000
1        CCCN(CCC)S(=O)(=O)c1ccc(C(=O)O)cc1  −4.004
2  CC(C)NCC(O)c1ccc(NS(C)(=O)=O)cc1 (stereo not shown)  −1.678
3  C[C@H]1C[C@@H]2[C@H]([C@@H](O)C[C@@]3(C)[C@H]2CC[C@]3(O)C(=O)CO)[C@@]2(C)C=CC(=O)C=C12  −3.000
4  CO/N=C(\C(=O)N[C@@H]1C(=O)N2C(C(=O)O)=C(COC(N)=O)CS[C@H]12)c1ccco1  −2.553
5  CC(C)(O/N=C(\C(=O)N[C@@H]1C(=O)N2C(C(=O)[O-])=C(C[n+]3ccccc3)CS[C@H]12)c1csc(N)n1)C(=O)O  −2.495
6  CCOC(=O)[C@H](CCc1ccccc1)N[C@@H](C)C(=O)N1CCC[C@H]1C(=O)O  −2.959
7                           CCCC(CCC)C(=O)O  −3.921
8  CCn1cc(C(=O)O)c(=O)c2cc(F)c(N3CCNCC3)cc21  −3.000
9         O=C1NC(=O)C(c2ccccc2)(c2ccccc2)N1  −3.639

###

protocol_notes: membrane affinity as a measure of the lipophilicity (TRANSIL technology)
Format: physicochemical
Please use the following LogMA ranges when assigning a class: bottom range (below 0.9), center range (0.9 to below 2), top range (2 or more)

In [3]: df
Out[3]:
                                    compound  assigned_label
 0  CC(C)(O/N=C(\C(=O)N[C@@H]1C(=O)N2C(C(=O)[O-])=C(C[n+]3ccccc3)CS[C@H]12)c1csc(N)n1)C(=O)O    center range
 1          O=C1CN=C(c2ccccc2)c2cc(Cl)ccc2N1       top range
 2  CO[C@@]1(NC(=O)Cc2cccs2)C(=O)N2C(C(=O)O)=C(COC(N)=O)CS[C@@H]21    center range
 3                NC[C@H]1CC[C@H](C(=O)O)CC1    bottom range
 4  N=C(N)NC(=O)c1nc(Cl)c(N)nc1N [Amiloride]    bottom range
 5             CN(C)CCCN1c2ccccc2CCc2ccccc21       top range
 6  C[C@]12CCC(=O)C=C1CC[C@@H]1[C@@H]2[C@@H](O)C[C@@]2(C)[C@H]1CC[C@]2(O)C(=O)CO [Hydrocortisone]       top range
 7                N=C(N)N/N=C/c1c(Cl)cccc1Cl    bottom range
 8         O=C1NC(=O)C(c2ccccc2)(c2ccccc2)N1       top range
 9  C=CCOc1ccccc1OCC(O)CNC(C)C (stereo not shown)       top range
10  C[C@H](N[C@@H](CCc1ccccc1)C(=O)O)C(=O)N1CCC[C@H]1C(=O)O [Enalaprilate]    bottom range
11  CCN(CC)CCNC(=O)c1ccc(NC(C)=O)cc1 [N-Acetylprocainamide]    center range
12  CO[C@@]1(NC(=O)CSCC#N)C(=O)N2C(C(=O)O)=C(CSc3nnnn3C)CS[C@@H]21    center range
13  CC1(C)S[C@@H]2[C@H](NC(=O)[C@H](N)c3ccc(O)cc3)C(=O)N2[C@H]1C(=O)O    bottom range
14  NC(=O)N1c2ccccc2C=Cc2ccccc21 [Carbamazepine]       top range
15  CN1[C@@H]2C[C@@H](OC(=O)[C@H](CO)c3ccccc3)C[C@H]1[C@@H]1O[C@@H]12    center range
16  CC(=O)[C@H]1CC[C@H]2[C@@H]3CCC4=CC(=O)CC[C@]4(C)[C@H]3CC[C@]12C       top range
17  COc1cc2nc(N3CCN(C(=O)c4ccco4)CC3)nc(N)c2cc1OC       top range
18              Nc1nc2c(ncn2COCCO)c(=O)[nH]1    bottom range
19  Cc1ccccc1N1C(=O)c2cc(S(N)(=O)=O)c(Cl)cc2NC1C (stereo not shown)    center range
